The following molecules are shown together with reported pIC50 values.
Tested on: ULK kinase
Assay: pATG13 levels of mutant KRas A549 cells after treatment with ULK inhibitors in combination with trametinib (ELISA)
Format: cell-based, human
Details: A549 (KRAS mutant) lung cancer cells, 250 nM trametinib, overnight, pS318-ATG13
Description: Cellular Inhibition of ULK Kinase Substrate ATG13 Protein pATG13 Levels of Mutant KRas A549 Cells after Treatment with ULK Inhibitors in Combination with Trametinib […] Plate wells were washed with ELISA wash buffer. […] The plate was analyzed at on a plate reader measuring absorbance at 450 nm and 540 nm (background). Signal was calculated by first subtracting the background absorbance at 540 nm from the absorbance at 450 nm for each well. […]
pIC50: −log10 of the molar value.

I am curious: what pIC50 value has been reported for CN1C[C@H]2C[C@@H]1CN2c1ccc(Nc2ncc(C(F)(F)F)c(NCCCN3CCOCCC3=O)n2)c(C2CC2)c1 [Example 125] ?
7.00 to 8.00

---

biological target: ULK1 kinase (Homo sapiens, UniProt O75385, E37A/K38A); assay: Biochemical assay for ULK1.3 (coupled pyruvate kinase/lactate dehydrogenase assay, peptide substrate); settings: 0.1 nM ULK1 (residues 1-283), 1 mM ATP
Sequence (O75385 1-283 E37A/K38A): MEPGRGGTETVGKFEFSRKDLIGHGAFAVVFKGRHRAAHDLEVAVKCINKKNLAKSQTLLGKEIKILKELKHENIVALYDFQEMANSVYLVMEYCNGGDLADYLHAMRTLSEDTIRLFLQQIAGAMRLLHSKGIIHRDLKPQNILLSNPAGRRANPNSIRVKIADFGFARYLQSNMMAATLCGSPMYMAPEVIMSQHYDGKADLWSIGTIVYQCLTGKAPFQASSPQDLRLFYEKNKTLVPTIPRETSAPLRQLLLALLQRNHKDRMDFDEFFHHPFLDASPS
pIC50: −log10 of the molar value.
QUANTITY KIND: pIC50

Examples from the recorded data:
[[record]]
compound = "O=C1CCOCCN1CCCNc1nc(Nc2ccc(N3CCNCC3)cc2C2CC2)ncc1Cl [Example 89]"
readout_value = "6.30 to 7.00"

[[record]]
compound = "CN1C[C@@H]2C[C@H]1CN2c1ccc(Nc2ncc(C(F)(F)F)c(NCCCN3CCCOC3=O)n2)c(C2CC2)c1 [Example 117]"
readout_value = "7.00 to 7.60"

[[record]]
compound = "CCc1cc(N2CCCN(C)CC2)ccc1Nc1ncc(C(F)(F)F)c(NCCCN2CCCCC2=O)n1 [Example 31]"
readout_value = "7.60 to 9.00"

[[record]]
compound = "CCc1cc(N2CCN(C)CC2)ncc1Nc1ncc(C(F)(F)F)c(NCCCN2CCOCCC2=O)n1 [Example 67]"
readout_value = "7.60 to 9.00"

[[record]]
compound = "CN1CCN(c2ccc(Nc3cc(NCCCN4CCOCCC4=O)c(C(F)(F)F)cn3)cc2)CC1 [Example 110]"
readout_value = "7.60 to 9.00"

[[record]]
compound = "CCc1cc(N2CCN3CCC[C@@H]3C2)ccc1Nc1ncc(C(F)(F)F)c(NCCCN2CCCOC2=O)n1 [Example 106]"
readout_value = "7.60 to 9.00"

[[record]]
compound = "CN1CCN(c2ccc(Nc3cc(NCCCN4CCOCCC4=O)c(Cl)cn3)c(C3CC3)c2)CC1 [Example 104]"
readout_value = "6.30 to 7.00"

[[record]]
compound = "O=C1CCCCN1CCCNc1nc(Nc2ccc(N3CCNCC3)cc2C2CC2)ncc1C(F)(F)F [Example 34]"
readout_value = "7.60 to 9.00"


What value of pIC50 has been recorded for this entry: CCc1cc(N2CC3CCC(C2)N3C)ccc1Nc1ncc(C(F)(F)F)c(NCCCN2CCCOC2=O)n1 [Example 69]
7.60 to 9.00

Query: pIC50; subject: COCc1cc(N2CCN(C)CC2)ccc1Nc1ncc(C(F)(F)F)c(NCCCN2CCOCCC2=O)n1 [Example 127]
7.60 to 9.00
